These measurements were taken from PubChem BioAssay.

# subject.of.test: Torsin-1A-interacting protein 1 (Homo sapiens) (UniProt Q5JTV8)
# Sequence (Q5JTV8 whole entry, looked up): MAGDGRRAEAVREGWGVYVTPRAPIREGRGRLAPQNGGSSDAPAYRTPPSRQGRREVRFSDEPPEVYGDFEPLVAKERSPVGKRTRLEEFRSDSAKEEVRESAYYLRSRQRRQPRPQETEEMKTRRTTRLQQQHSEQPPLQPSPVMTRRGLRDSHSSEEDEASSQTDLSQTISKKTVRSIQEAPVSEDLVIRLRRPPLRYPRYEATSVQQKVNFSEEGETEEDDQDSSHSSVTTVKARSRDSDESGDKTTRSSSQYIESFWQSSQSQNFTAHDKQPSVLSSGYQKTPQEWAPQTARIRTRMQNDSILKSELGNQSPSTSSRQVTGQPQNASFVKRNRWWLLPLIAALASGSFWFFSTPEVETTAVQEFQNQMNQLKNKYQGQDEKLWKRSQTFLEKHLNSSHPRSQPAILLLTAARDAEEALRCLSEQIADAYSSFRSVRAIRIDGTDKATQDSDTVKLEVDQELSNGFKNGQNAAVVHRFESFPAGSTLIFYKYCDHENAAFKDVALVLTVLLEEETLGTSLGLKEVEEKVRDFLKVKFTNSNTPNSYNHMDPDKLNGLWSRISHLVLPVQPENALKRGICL
# experimental.protocol: LAP1 binders from COS7 cell lysate, primary screen, small-molecule microarray, 635/667 nm fluorescence (AID 1116)
# setup.conditions: COS7-hLAP1 lysate binding, 635 nm fluorescence, higher = more signal
measurement.kind: composite z-score

- O=C(N1CCOCC1)[C@]1(CCS(=O)(=O)c2ccccc2)N=C(c2ccc(OCCCO)cc2)O[C@@H]1c1ccccc1: 2.3
- C=CCOC(=O)[C@@H]1[C@H]2C(=O)O[C@H](c3ccccc3)[C@H](c3ccccc3)N2[C@H](c2ccc(OCCOC(=O)[C@H]3C[C@H]4C(=O)N[C@@H](CCCCN(C)C)C(=O)N4[C@H]3c3cccc(OCCO)c3)cc2)[C@@]12C(=O)Nc1ccccc12: 0.518
- CC(C)(C)OC(=O)CC[C@]1(C(N)=O)N=C(c2ccc(OCCCO)cc2)O[C@H]1c1ccccc1N=[N+]=[N-]: 0.791
